These data points were gathered from patent US20110166121A1.

target: Human P2Y12 receptor (Homo sapiens); construct: expressed in transfected cells; host or cells: HEK cells; test: Human P2Y12 receptor cell membrane binding assay with [3H] 2-Mes-ADP; conditions: 1 nM [3H] 2-Mes-ADP, membranes of HEK cells expressing P2Y12 receptor; read-out: Binding activity (IC50)
readout type: IC50 (µM)
Give bare numbers, in µM.

input_smiles=CCCc1cc2c(N3CCn4c(nnc4C(F)(F)F)C3)nc(NC3CNC3)nc2s1 value_measured=0.32
input_smiles=CCCc1cc2c(N3CCn4c(nnc4C(F)(F)F)C3)nc(Oc3cccc(C(=O)O)c3)nc2s1 value_measured=0.196
input_smiles=CC(C)c1cc2c(N3CCn4c(nnc4C(F)(F)F)C3)nc(NCCO)nc2s1 value_measured=1.82

[ask] Quick one: IC50 for CCCc1cc2c(N3CCn4c(nnc4C(F)(F)F)C3)nc(-c3nc(CCO)no3)nc2s1 ?
[reply] 6.5

---

Target: Human P2Y12 receptor (Homo sapiens, UniProt Q9H244)
Construct: expressed in transfected cells; host or cells: HEK cells
Sequence (Q9H244 whole entry): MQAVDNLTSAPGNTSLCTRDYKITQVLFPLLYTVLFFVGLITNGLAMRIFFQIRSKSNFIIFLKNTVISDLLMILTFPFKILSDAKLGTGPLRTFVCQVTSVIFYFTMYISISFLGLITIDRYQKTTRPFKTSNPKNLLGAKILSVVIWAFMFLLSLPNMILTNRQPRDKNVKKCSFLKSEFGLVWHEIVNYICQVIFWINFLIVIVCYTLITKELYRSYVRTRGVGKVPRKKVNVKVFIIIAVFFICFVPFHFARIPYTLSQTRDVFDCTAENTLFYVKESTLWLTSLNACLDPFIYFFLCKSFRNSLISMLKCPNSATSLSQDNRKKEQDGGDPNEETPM
Assay: Human P2Y12 receptor cell membrane binding assay with [3H] 2-Mes-ADP
Details: 1 nM [3H] 2-Mes-ADP, membranes of HEK cells expressing P2Y12 receptor; read-out: Binding activity (IC50)
Description: Human P2Y12 Receptor Cell Membrane Binding Assay with [^3H] 2-Mes-ADP Whether test compounds bind to P2Y12 receptor is measured by [3H]-2MesADP binding in HEK cells expressing P2Y12 receptor. […] The volume of 100 μL of 200 μg membrane protein was aliquoted into 96 well plate. […] Radioactivity bound to P2Y12 receptor membrane was counted in a scintillation counter. […]
# thresholds on IC50 define classes: one: < 70 nM; two: ≥ 70 nM and < 300 nM; three: ≥ 300 nM

compound="CCCc1cc2c(N3CCn4c(nnc4C(F)(F)F)C3)nc(N3CCCCC3CO)nc2s1 (stereo not shown) [Example 1-28]" assigned_category=one
compound="CCCc1cc2c(N3CCn4c(nnc4C(F)(F)F)C3)nc(NCC3CCN(Cc4ccccc4)C3)nc2s1 (stereo not shown) [Example 1-11]" assigned_category=two
compound="CCc1nc2c(N3CCn4c(nnc4C(F)(F)F)C3)nc(N3CCNC(=O)C3)nc2s1 [Example 5-1]" assigned_category=three

[ask] Classify this compound: CCCc1cc2c(N3CCn4c(nnc4C(F)(F)F)C3)nc(C(=O)OCC)nc2s1 [Example 4-1]
[reply] two

[ask] Also check CCCc1cc2c(N3CCn4c(nnc4C(F)(F)F)C3)nc(-c3nc(CC(=O)OCC)cs3)nc2s1 [Example 4-51]
[reply] one

[ask] Also check CCCc1cc2c(N3CCn4c(nnc4C(F)(F)F)C3)nc(N3CC[C@H](N)C3)nc2s1 [Example 1-14]
[reply] one

---

biological target: Human P2Y12 receptor (Homo sapiens, UniProt Q9H244); construct: expressed in transfected cells; host or cells: HEK cells; assay: Human P2Y12 receptor cell membrane binding assay with [3H] 2-Mes-ADP; details: 1 nM [3H] 2-Mes-ADP, membranes of HEK cells expressing P2Y12 receptor; read-out: Binding activity (IC50)
readout type: pIC50
Numbers only, as −log10 of the molar value.

Examples with their reported pIC50 follow.
compound="CCCc1cc2c(N3CCn4c(nnc4C(F)(F)F)C3)nc(OC3CCOC3)nc2s1 (stereo not shown)" readout_type=pIC50 value_measured=7.04
compound="CCCc1cc2c(N3CCn4c(nnc4C(F)(F)F)C3)nc(N3CCC(CN)C3)nc2s1 (stereo not shown)" readout_type=pIC50 value_measured=7.08
compound=CCCCOc1nc(N2CCn3c(nnc3C(F)(F)F)C2)c2cc(CCC)sc2n1 readout_type=pIC50 value_measured=6.96
compound=CCCc1cc2c(N3CCn4c(nnc4C(F)(F)F)C3)nc(CC(=O)OCC)nc2s1 readout_type=pIC50 value_measured=6.52
compound=CCCc1cc2c(N3CCn4c(nnc4C(F)(F)F)C3)nc(N3CCC(=O)C3)nc2s1 readout_type=pIC50 value_measured=7.27

Lab note: each compound below needs its pIC50 filled in.
1. CCCc1cc2c(N3CCn4c(nnc4C(F)(F)F)C3)nc(N3CC[C@H](NS(C)(=O)=O)C3)nc2s1
2. CCCc1cc2c(N3CCn4c(nnc4C(F)(F)C(F)(F)F)C3)nc(OCCO)nc2s1
3. CCCc1cc2c(N3CCn4c(nnc4C(F)(F)F)C3)nc(C(=O)N3CCCC(C(=O)OCC)C3)nc2s1 (stereo not shown)

[reply]
1: 7.49; 2: 6.92; 3: 5.89
